- target system: CaMK2d (Homo sapiens (Human))
- Sequence (Q13557 whole entry): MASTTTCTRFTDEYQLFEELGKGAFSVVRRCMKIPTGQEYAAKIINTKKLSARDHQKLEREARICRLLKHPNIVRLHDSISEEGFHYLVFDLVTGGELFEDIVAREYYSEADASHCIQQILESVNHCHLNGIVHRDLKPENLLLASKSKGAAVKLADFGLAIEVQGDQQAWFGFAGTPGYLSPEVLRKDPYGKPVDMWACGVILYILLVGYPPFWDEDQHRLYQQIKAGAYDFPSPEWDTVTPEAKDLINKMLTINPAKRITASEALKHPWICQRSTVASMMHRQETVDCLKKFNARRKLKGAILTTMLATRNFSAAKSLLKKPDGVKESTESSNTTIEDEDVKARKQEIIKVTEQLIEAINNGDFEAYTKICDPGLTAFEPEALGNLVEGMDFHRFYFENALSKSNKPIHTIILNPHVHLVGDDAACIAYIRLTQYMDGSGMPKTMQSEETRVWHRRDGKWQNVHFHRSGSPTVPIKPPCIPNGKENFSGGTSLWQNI
- assay: KINATIV assay
- Type: cell-based
- applied conditions: 1 μM, 90 minutes, BCWM.1 cells
# % change of MS signal compared to control sample listing for each entry below
reported property: % change of MS signal compared to control sample (%)

compound="C=CC(=O)N1CCC(CNc2nccc(Nc3ncc(C(=O)Nc4c(C)cccc4C)s3)n2)C1 (racemic)" target_system="CaMK2d (Homo sapiens (Human))" test_result=−22.3
compound="C=CC(=O)N1CCCCC(Nc2nccc(Nc3ncc(C(=O)Nc4c(C)cccc4C)s3)n2)C1 (stereo not shown)" target_system="CaMK2d (Homo sapiens (Human))" test_result=−22.5
compound="C=CC(=O)N1CCC(Cn2ccc(Nc3ncc(C(=O)Nc4c(C)cccc4Cl)s3)n2)C1 (stereo not shown)" target_system="CaMK2d (Homo sapiens (Human))" test_result=−14.8
compound=C=CC(=O)N1CC[C@@H](Nc2nccc(Nc3ncc(C(=O)Nc4c(C)cccc4C)s3)n2)C1 target_system="CaMK2d (Homo sapiens (Human))" test_result=−8.5
